Just for reference, ChEMBL document CHEMBL4819048 is where these values come from.

Assay: Cytotoxicity against human HEK293-EBNA cells assessed as cell viability at 3.12 uM by MTS/PMS assay
Type: cell-based
Settings: read-out: Activity
# viability at 3.12 µM values compiled below
Numeric answer only, unit % assumed.

Recorded viability at 3.12 µM, per entry:
Cc1ccc(S(=O)(=O)n2ccc3c2C(=O)c2[nH]c(C(=O)c4ccccc4)c(C(=O)c4ccccc4)c2C3=O)cc1	99
Cc1ccc(S(=O)(=O)n2cc3c4c2C(=O)c2c(-c5ccccc5)n[nH]c2C4=NCC3)cc1	91
Cc1ccc(S(=O)(=O)n2cc3c4c2C(=O)c2n[nH]cc2C4=NCC3)cc1	92
O=C1c2[nH]cc3c2C(=NCC3)c2c(-c3ccccc3)n[nH]c21	93
Cc1ccc(S(=O)(=O)n2ccc3c2C(=O)c2c4c(cn2S(=O)(=O)c2ccc(C)cc2)CCN=C34)cc1	87
Cc1ccc(S(=O)(=O)n2cc3c4c2C(=O)c2c(cnn2C)C4=NCC3)cc1	93

Kindly consider the entry below.
Which viability at 3.12 µM value is on record for Cc1ccc(S(=O)(=O)n2cc3c4c2C(=O)c2cn[nH]c2C4=NCC3)cc1 ? 87

* * *

Biological target: Tryptophan 2,3-dioxygenase (Homo sapiens)
Test: Inhibition of human TDO expressed in HEK293-EBNA cells assessed as reduction in kynurenine formation using tryptophan as substrate at 12.5 uM incubated for 24 hrs by HPLC analysis relative to control
Type: cell-based
# inhibition values compiled below
Numeric answer only, unit % assumed.

Cc1ccc(S(=O)(=O)n2ccc3c2C(=O)c2[nH]c(C(=O)c4c[nH]c5ccccc45)c(C(=O)c4c[nH]c5ccccc45)c2C3=O)cc1	-2

Form field: inhibition recorded for Cc1ccc(S(=O)(=O)n2cc3c4c2C(=O)c2c(-c5ccccc5)n[nH]c2C4=NCC3)cc1 with Tryptophan 2,3-dioxygenase (Homo sapiens) (enter value) 18

Form field: inhibition recorded for Cc1ccc(S(=O)(=O)n2ccc3c2C(=O)c2c(-c4c[nH]c5ccccc45)cn(C)c2C3=O)cc1 with Tryptophan 2,3-dioxygenase (Homo sapiens) (enter value) -1

Form field: inhibition recorded for Cc1ccc(S(=O)(=O)n2ccc3c2C(=O)c2[nH]cc4c2C3=NCC4)cc1 with Tryptophan 2,3-dioxygenase (Homo sapiens) (enter value) -6

Form field: inhibition recorded for O=C1c2[nH]cc3c2C(=NCC3)c2c(-c3ccccc3)n[nH]c21 with Tryptophan 2,3-dioxygenase (Homo sapiens) (enter value) 6

Form field: inhibition recorded for Cc1ccc(S(=O)(=O)n2cc3c4c2C(=O)c2[nH]nc(N5C(=O)C(O)c6ccccc65)c2C4=NCC3)cc1 (stereo not given) with Tryptophan 2,3-dioxygenase (Homo sapiens) (enter value) 6

Form field: inhibition recorded for Cc1ccc(S(=O)(=O)n2ccc3c2C(=O)c2c(c(-c4c[nH]c5ccccc45)cn2C)C3=O)cc1 with Tryptophan 2,3-dioxygenase (Homo sapiens) (enter value) 0

Form field: inhibition recorded for Cc1ccc(S(=O)(=O)n2ccc3c2C(=O)c2[nH]c(C(=O)c4ccccc4)c(C(=O)c4ccccc4)c2C3=O)cc1 with Tryptophan 2,3-dioxygenase (Homo sapiens) (enter value) 55

Form field: inhibition recorded for Cc1ccc(S(=O)(=O)n2cc3c4c2C(=O)c2n[nH]cc2C4=NCC3)cc1 with Tryptophan 2,3-dioxygenase (Homo sapiens) (enter value) 13

Form field: inhibition recorded for O=C1c2c[nH]nc2C2=NCCc3c[nH]c1c32 with Tryptophan 2,3-dioxygenase (Homo sapiens) (enter value) 8

* * *

Molecular target: Indoleamine 2,3-dioxygenase 1 (Homo sapiens) (UniProt P14902)
Sequence (P14902 whole entry, looked up): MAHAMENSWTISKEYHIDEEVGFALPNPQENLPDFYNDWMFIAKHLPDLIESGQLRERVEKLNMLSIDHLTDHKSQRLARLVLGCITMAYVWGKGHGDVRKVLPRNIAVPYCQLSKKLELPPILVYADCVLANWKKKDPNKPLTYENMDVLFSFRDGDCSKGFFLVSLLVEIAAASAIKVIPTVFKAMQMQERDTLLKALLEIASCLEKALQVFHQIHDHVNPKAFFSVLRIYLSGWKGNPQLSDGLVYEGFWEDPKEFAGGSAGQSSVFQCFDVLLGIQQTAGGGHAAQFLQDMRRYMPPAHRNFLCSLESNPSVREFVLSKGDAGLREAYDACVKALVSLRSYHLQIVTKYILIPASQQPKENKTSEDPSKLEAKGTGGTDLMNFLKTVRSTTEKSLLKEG
Assay: Inhibition of human IDO1 expressed in HEK293-EBNA cells assessed as reduction in kynurenine formation using tryptophan as substrate at 12.5 uM incubated for 24 hrs by HPLC analysis relative to control
Type: cell-based
PROPERTY_MEASURED: inhibition (%)
Numeric answer only, unit % assumed.

Cc1ccc(S(=O)(=O)n2cc3c4c2C(=O)c2c(cnn2C)C4=NCC3)cc1	23
Cc1ccc(S(=O)(=O)n2ccc3c2C(=O)c2[nH]c(C(=O)c4ccccc4)c(C(=O)c4ccccc4)c2C3=O)cc1	62
O=C1c2c[nH]nc2C2=NCCc3c[nH]c1c32	0
Cc1ccc(S(=O)(=O)n2ccc3c2C(=O)c2c(-c4c[nH]c5ccccc45)cn(C)c2C3=O)cc1	26
Cc1ccc(S(=O)(=O)n2cc3c4c2C(=O)c2c(-c5ccccc5)n[nH]c2C4=NCC3)cc1	22

Kindly consider the entry below.
Which inhibition value is on record for O=C1c2[nH]cc3c2C(=NCC3)c2c(-c3ccccc3)n[nH]c21 ? 5

* * *

Test: Cytotoxicity against human HEK293-EBNA cells assessed as cell viability at 25 uM by MTS/PMS assay
Format: cell-based
Settings: read-out: Activity
PROPERTY_MEASURED: viability at 25 µM (%)
Numeric answer only, unit % assumed.

Recorded viability at 25 µM, per entry:
Cc1ccc(S(=O)(=O)n2ccc3c2C(=O)c2c(-c4c[nH]c5ccccc45)cn(C)c2C3=O)cc1	95
Cc1ccc(S(=O)(=O)n2ccc3c2C(=O)c2c(c(-c4c[nH]c5ccccc45)cn2C)C3=O)cc1	88
Cc1ccc(S(=O)(=O)n2ccc3c2C(=O)c2[nH]c(C(=O)c4c[nH]c5ccccc45)c(C(=O)c4c[nH]c5ccccc45)c2C3=O)cc1	75
Cc1ccc(S(=O)(=O)n2cc3c4c2C(=O)c2n[nH]cc2C4=NCC3)cc1	91

Which viability at 25 µM value is on record for Cc1ccc(S(=O)(=O)n2cc3c4c2C(=O)c2c(-c5ccccc5)n[nH]c2C4=NCC3)cc1 ? 96

Which viability at 25 µM value is on record for Cc1ccc(S(=O)(=O)n2ccc3c2C(=O)C=C(NCCc2c[nH]c4ccccc24)C3=O)cc1 ? 26

Which viability at 25 µM value is on record for Cc1ccc(S(=O)(=O)n2ccc3c2C(=O)C(NCCc2c[nH]c4ccccc24)=CC3=O)cc1 ? 84

Which viability at 25 µM value is on record for O=C1c2[nH]cc3c2C(=NCC3)c2c(-c3ccccc3)n[nH]c21 ? 84

Which viability at 25 µM value is on record for O=C1c2c[nH]nc2C2=NCCc3c[nH]c1c32 ? 90

* * *

# inhibition values compiled below
Target: Tryptophan 2,3-dioxygenase (Homo sapiens) (UniProt P48775)
Sequence (P48775 whole entry, looked up): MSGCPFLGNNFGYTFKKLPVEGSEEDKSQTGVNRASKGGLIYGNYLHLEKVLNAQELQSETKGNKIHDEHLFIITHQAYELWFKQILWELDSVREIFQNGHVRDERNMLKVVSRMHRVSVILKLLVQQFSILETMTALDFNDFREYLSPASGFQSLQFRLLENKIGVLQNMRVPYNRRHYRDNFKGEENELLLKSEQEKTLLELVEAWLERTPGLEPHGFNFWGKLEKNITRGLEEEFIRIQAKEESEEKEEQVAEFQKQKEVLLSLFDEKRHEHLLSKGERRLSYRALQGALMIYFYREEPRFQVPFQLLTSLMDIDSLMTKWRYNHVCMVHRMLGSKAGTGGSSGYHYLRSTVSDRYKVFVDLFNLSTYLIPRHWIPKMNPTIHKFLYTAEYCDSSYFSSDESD
Assay: Inhibition of human TDO expressed in HEK293-EBNA cells assessed as reduction in kynurenine formation using tryptophan as substrate at 3.12 uM incubated for 24 hrs by HPLC analysis relative to control
Format: cell-based
Numeric answer only, unit % assumed.

Recorded inhibition, per entry:
Cc1ccc(S(=O)(=O)n2ccc3c2C(=O)c2[nH]c(C(=O)c4ccccc4)c(C(=O)c4ccccc4)c2C3=O)cc1	15
O=C1c2c[nH]nc2C2=NCCc3c[nH]c1c32	6
Cc1ccc(S(=O)(=O)n2cc3c4c2C(=O)c2cn[nH]c2C4=NCC3)cc1	15
Cc1ccc(S(=O)(=O)n2ccc3c2C(=O)c2c(c(-c4c[nH]c5ccccc45)cn2C)C3=O)cc1	2
Cc1ccc(S(=O)(=O)n2ccc3c2C(=O)C(NCCc2c[nH]c4ccccc24)=CC3=O)cc1	-8

Which inhibition value is on record for Cc1ccc(S(=O)(=O)n2ccc3c2C(=O)C=C(NCCc2c[nH]c4ccccc24)C3=O)cc1 ? 5

Which inhibition value is on record for Cc1ccc(S(=O)(=O)n2ccc3c2C(=O)c2c(-c4c[nH]c5ccccc45)cn(C)c2C3=O)cc1 ? 2

Which inhibition value is on record for Cc1ccc(S(=O)(=O)n2cc3c4c2C(=O)c2c(cnn2C)C4=NCC3)cc1 ? 3

Which inhibition value is on record for Cc1ccc(S(=O)(=O)n2cc3c4c2C(=O)c2[nH]nc(-c5ccccc5)c2C4=NCC3)cc1 ? 5

* * *

# viability at 6.25 µM values compiled below
Test: Cytotoxicity against human HEK293-EBNA cells assessed as cell viability at 6.25 uM by MTS/PMS assay
Format: cell-based
Conditions: read-out: Activity
Numeric answer only, unit % assumed.

O=C1c2[nH]cc3c2C(=NCC3)c2c(-c3ccccc3)n[nH]c21	93
Cc1ccc(S(=O)(=O)n2ccc3c2C(=O)c2[nH]c(C(=O)c4ccccc4)c(C(=O)c4ccccc4)c2C3=O)cc1	125
Cc1ccc(S(=O)(=O)n2ccc3c2C(=O)c2[nH]c(C(=O)c4c[nH]c5ccccc45)c(C(=O)c4c[nH]c5ccccc45)c2C3=O)cc1	81
Cc1ccc(S(=O)(=O)n2ccc3c2C(=O)c2c(-c4c[nH]c5ccccc45)cn(C)c2C3=O)cc1	98
Cc1ccc(S(=O)(=O)n2ccc3c2C(=O)c2[nH]cc4c2C3=NCC4)cc1	98
O=C1c2c[nH]nc2C2=NCCc3c[nH]c1c32	92

Which viability at 6.25 µM value is on record for Cc1ccc(S(=O)(=O)n2ccc3c2C(=O)C=C(NCCc2c[nH]c4ccccc24)C3=O)cc1 ? 69

* * *

# inhibition values compiled below
Biological target: Indoleamine 2,3-dioxygenase 1 (Homo sapiens)
Assay: Inhibition of human IDO1 expressed in HEK293-EBNA cells assessed as reduction in kynurenine formation using tryptophan as substrate at 12.5 uM incubated for 24 hrs by HPLC analysis relative to control
Assay type: cell-based
Numeric answer only, unit % assumed.

Which inhibition value is on record for Cc1ccc(S(=O)(=O)n2cc3c4c2C(=O)c2cn[nH]c2C4=NCC3)cc1 ? 15

Which inhibition value is on record for Cc1ccc(S(=O)(=O)n2ccc3c2C(=O)c2[nH]cc4c2C3=NCC4)cc1 ? -4

Which inhibition value is on record for Cc1ccc(S(=O)(=O)n2cc3c4c2C(=O)c2[nH]nc(N5C(=O)C(O)c6ccccc65)c2C4=NCC3)cc1 (stereo not drawn) ? 1
